assay: NCI Yeast Anticancer Drug Screen. Data for the rad50 strain (AID 155);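 further: 0% = growth of vehicle-only cultures of the same strain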; conditions: S. cerevisiae rad50 strain growth inhibition; at 50.0 µM
About 79,000 compounds went through this panel and 15% of them were active in at least one assay; those are over-represented in the sample as a whole. The source made the active and inactive calls. No stated cut-off is given here; in the data, active means growth inhibition above about 70%; inactive means the rest.
Outcomes: active, inactive

COMPOUND | CATEGORY_LABEL
Nc1ccccc1Sc1ccc(F)cc1[N+](=O)[O-] | active
CNC(=S)/N=c1/sc([N+](=O)[O-])c(C)n1C | inactive
Cc1cccc(NC(=O)C(=O)C(C2OC(=O)c3ccccc32)[N+](=O)[O-])c1C (centres undefined) | active
CCOC(=O)c1ccc(NC(=O)CCl)cc1 | inactive
COc1cc(C2CC(C)(OC)Oc3cc4c(cc32)OCO4)cc(OC)c1O (centres undefined) | inactive
c1ccc2cc3c(ccc4cccc[n+]43)cc2c1 | inactive
OCCCCCCCCCl | inactive
O=[N+]([O-])C(/C=C(\Cl)n1nnc2ccccc21)=C(/Cl)n1nnc2ccccc21 | inactive
O=C(O)C1C(C(=O)Nc2ccc3c(c2)Cc2ccccc2-3)C2(Cl)C(Cl)=C(Cl)C1(Cl)C2(Cl)Cl (centres undefined) | active

----------
test: NCI Yeast Anticancer Drug Screen. Data for the cln2 rad14 strain (AID 165);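 further: 0% = growth equal to vehicle treated cultures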; conditions: S. cerevisiae cln2 rad14 strain, at 50.0 µM, stronger effect = higher value
About 79,000 compounds went through this panel and 15% of them were active in at least one assay; those are over-represented in the sample as a whole.
READOUT_LABEL: growth inhibition (%)

COMPOUND | UNITS_LABEL | ASSAY_RESULT
O=C(O)CC(C(=O)O)C(c1cccc2ccccc12)c1cccc2ccc3ccccc3c12 (stereo not given) | % | 98.7
CC(=O)OCC1OC(Sc2ccc3ccccc3c2)C(OC(C)=O)C(OC(C)=O)C1OC(C)=O (stereo not given) | % | 52.4
C=C(CN1CCOCC1)C(=O)c1ccccc1 | % | 60.9
CCCNCC/C=C/[Si](C)(C)C | % | 98.5
Cn1nc(-c2ccc3c(c2)OCO3)[n+]([O-])c2c(=O)n(C)c(=O)nc1-2 | % | 98.2
CCCCCCCCCCCCSCCCN | % | 99.5
O=[N+]([O-])c1cc(CNCCO)c(O)c2ncccc12 | % | 97.9
CC(C)CCC(C)(C)c1cc(O)ccc1O | % | 87.5
COC(=O)CSc1n[nH]c(-c2ccc(O)c([N+](=O)[O-])c2)n1 | % | 65.5
N#C/C(=C1/C(=O)c2ccccc2-c2ccccc21)c1ccccc1 | % | 98.2
COc1cc([C@@H]2c3cc4c(cc3[C@@H](OC3OC5CO[C@@H](c6cccs6)OC5C(O)C3O)[C@H]3COC(=O)[C@H]23)OCO4)cc(OC)c1O (stereo not given in full) | % | 47.6
O=C(c1ccccc1)c1ccc(OCC2CO2)cc1 (stereo not given) | % | 20.6
C[n+]1c(/C=C/c2ccccc2Cl)sc2ccccc21 | % | 98.5
CCOC(=O)/C=C\c1c(Cl)n(-c2ccccc2)c(=O)n(-c2ccccc2)c1=O | % | 90.3
O=[N+]([O-])c1cc(C(F)(F)F)cc([N+](=O)[O-])c1CCl | % | 99.4

----------
test: NCI Yeast Anticancer Drug Screen. Data for the rad50 strain (AID 155);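 further: 0% = growth of vehicle-only cultures of the same strain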; conditions: S. cerevisiae rad50 strain growth inhibition; at 5.0 µM (retest, dose inferred, filed as 0.5)
The panel holds about 79,000 compounds, 15% with a hit somewhere; the sample as a whole holds those more often. Calls of active or inactive are those of the source. No stated cut-off is given here; in the data, active means growth inhibition above about 70%; inactive means the rest.
Outcomes: True for active, False for inactive

COMPOUND | CATEGORY_LABEL
N=C(N)SC1c2ccccc2-c2ccc(N)cc21 (stereo not drawn) | False
COc1ccc(C(c2ccc(C(C)C)cc(OC)c2=O)c2ccc(C(C)C)cc(OC)c2=O)cc1 | False
CC1(C)NNC(=S)NN1 | False
NNC(=O)c1ccc(N)cc1O | False
O=C(O)CCCCCCC(=O)CCl | False
O=C1c2cc(F)ccc2-c2c(F)cc(F)c(F)c21 | False
Cc1ccc(NCCN(C)C)c2c(=O)c3c(O)cccc3sc12 | True
C=CCSc1nc2ccc(N3C(=O)C=CC3=O)cc2s1 | False

----------
experiment: NCI Yeast Anticancer Drug Screen. Data for the sgs1 mgt1 strain (AID 161);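 further: 0% = growth of cultures given vehicle only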; details: S. cerevisiae sgs1 mgt1 strain, at 50.0 µM (retest, dose inferred, filed as 5.0), stronger effect = higher value
The panel holds about 79,000 compounds, 15% with a hit somewhere; the sample as a whole holds those more often.
Below, each entry is listed with its recorded growth inhibition.
READOUT_LABEL: growth inhibition (%)

COMPOUND | READOUT_LABEL | UNITS_LABEL | ASSAY_RESULT
COc1ccccc1NC(=O)/C(=C\N1C(=O)/C(=C/c2cc(OC)c(OC)c(OC)c2)SC1=S)C(C)=O | growth inhibition | % | 35
O/N=C\c1ccc(-c2ccccc2)cc1 | growth inhibition | % | 88
Cc1ccc(CN2CC(=O)N3Cc4ccccc4CN3C(=O)C2)cc1 | growth inhibition | % | 4
CC1=C(C(=O)Nc2ccccc2)C(c2ccc(C(C)C)cc2)C(C(=O)Nc2ccccc2)=C(C)N1 | growth inhibition | % | 94
Cc1cc(N=NC(N)=S)c2ccccc2c1O | growth inhibition | % | 16
COc1ccccc1/C=C1\Sc2scc(-c3ccc(O)c(O)c3)[n+]2C1=O | growth inhibition | % | 99
CCOC(=O)Nc1cc2c(cc1Br)-c1ccccc1C2O (stereo not drawn) | growth inhibition | % | 1
CCCCCC/C=C\C=O | growth inhibition | % | 17
O=c1[nH]c(=O)c2cc([N+](=O)[O-])cc([N+](=O)[O-])c2[nH]1 | growth inhibition | % | 78
CCCCN=C(c1ccc(O)cc1)c1ccc(OC)cc1O | growth inhibition | % | 37
OC(CBr)C[n+]1cccc2cc(Cl)ccc21 (stereo not drawn) | growth inhibition | % | 9
[Br][Pt+2][Br].[NH-]c1cccc(I)c1.[NH-]c1cccc(I)c1 | growth inhibition | % | 39
CC1=C(C(=O)Nc2cccc(C(F)(F)F)c2)C(c2ccccc2F)C(C(=O)Nc2cccc(C(F)(F)F)c2)=C(C)N1 | growth inhibition | % | 29

----------
experiment: NCI Yeast Anticancer Drug Screen. Data for the mec2-1 strain (AID 157); conditions: S. cerevisiae mec2-1 strain, at 50.0 µM (retest, dose inferred, filed as 5.0), stronger effect = higher value
This is part of a sample that, as a whole, favours compounds with a hit. Of some 79,000 tested, about 15% had one in any assay.
Give criterion met when the value for growth inhibition is at least 70%. Give criterion not met when it is less.

MOLECULE | CATEGORY_LABEL
Cc1cc(C)c(Cc2cc(C(C)(C)C)cc(C)c2O)cc1Cc1cc(C(C)(C)C)cc(C)c1O | criterion not met
C=C1C(=O)OC2CC(C)C3C=CC(=O)C3CC12 (stereo not given) | criterion not met
O=C1/C(=C\c2ccc(Cl)cc2Cl)Sc2scc(-c3ccc(O)c(O)c3)[n+]21 | criterion not met
CN(C)CCNc1ccc([N+](=O)[O-])c2nc3ccccc3c(N)c12 | criterion not met
C=CS(=O)(=O)c1ccc2ccccc2c1 | criterion met
Cc1ccnc2sc3ccccc3c(=O)c12 | criterion met
CC(C)NC(=O)OCc1c2c(n(C)c1COC(=O)NC(C)C)-c1ccccc1CC2 | criterion met
COc1ncc(Br)cc1C(=O)NCCc1ccc(S(=O)(=O)NC(=O)NC2CCCCC2)cc1 | criterion met
CN(C)CC(=O)OCC[N+](C)(C)C | criterion not met
O=C1C(N2CCOCC2)=C(Cl)C(=O)c2ncccc21 | criterion met
Cc1cccc(N2CCN(CC(O)COc3ccc4ccccc4c3)CC2)c1 (stereo not given) | criterion not met
CC1=C(C(=O)Nc2cccc(C(F)(F)F)c2)C(c2ccccc2F)C(C(=O)Nc2cccc(C(F)(F)F)c2)=C(C)N1 | criterion not met
CCCCCCC(C)S(=O)(=O)c1ccc(C)cc1 (stereo not given) | criterion met
CC(C)c1ccc2c(c1)CC[C@@H]1[C@](C)(CO)CCC[C@]21C | criterion met
CC(=O)c1ccc(Cl)c(N=Cc2cc(Br)ccc2O)c1 | criterion met

----------
assay: NCI Yeast Anticancer Drug Screen. Data for the mec2-1 strain (AID 157); settings: S. cerevisiae mec2-1 strain, at 50.0 µM (retest, dose inferred, filed as 5.0)
Compounds without any hit were thinned out: in the full panel of roughly 79,000, 15% have a hit. The source made the active and inactive calls. No stated cut-off is given here; in the data, active means growth inhibition above about 70%; inactive means the rest.
Outcomes: active, inactive

MOLECULE | CATEGORY_LABEL
COc1nc2nc(SC(CC(=O)O)C(=O)c3ccc(Cl)cc3)[nH]c2c2ccccc12 (stereo not drawn) | inactive
c1ccc2c(c1)[nH]c1c[n+]3c(c[n+]12)[nH]c1ccccc13 | inactive
CCS(=O)(=O)/C=C\S(=O)(=O)CC | inactive
CCN(CC)CCNc1c(O)cc(C)c2sc3ccccc3c(=O)c12 | active
CCOC(=O)c1ccc(NC(=O)CCl)cc1 | active
Cc1ccc(Sc2ccc(C)cc2[N+](=O)[O-])c([N+](=O)[O-])c1 | inactive
O=CNC(CCCC(=O)O)Cc1cc2ccccc2c2ccccc12 (stereo not drawn) | inactive
N#Cc1ccc(C(F)(F)F)cc1[N+](=O)[O-] | active
Cc1cc(C)c(N2C(=O)C=CC2=O)c(C)c1 | active
O/N=C1/CC2CCCc3ccc4cccc1c4c32 (stereo not drawn) | inactive
CCCC[N-]CC(O)C[NH-].O=C(O)CC(=O)O.[Pt+2] (stereo not drawn) | inactive
O=[N+]([O-])c1c(Cl)ccc2nsnc12 | active
O=C(Nc1cccc(Cl)c1)c1ccc([N+](=O)[O-])cc1 | inactive
COc1cc(C2CC(C)(OC)Oc3cc4c(cc32)OCO4)cc(OC)c1O (stereo not drawn) | inactive
CCOC(=O)/C(=C/O)c1c[nH]c2ccccc12 | active
CN(C)CCCNc1c(C#N)[n+]([O-])c2cc(Cl)ccc2[n+]1[O-] | active
CC(Nc1cc(Cl)cc(Cl)c1)c1ccncc1 (stereo not drawn) | active
O=C1c2ccccc2C(=O)C2OC12 (stereo not drawn) | active
OC(Cc1ccc2ccccc2c1)CN1CCC(c2ccccc2)CC1 (stereo not drawn) | active
Cc1cc(Cl)c(C(C)C)cc1O | inactive
N=C(N)c1ccc(-c2ccc(-c3ccc(C(=N)N)cc3)o2)cc1 | inactive
CCCCCCCCCCCCCCOCCS(=O)(=O)O | inactive
CCSC(=S)NC(=O)c1ccccc1 | inactive
CC(=O)Oc1ccc(C(C)(C)CC(C)(C)C)cc1 | inactive
COc1ccc(CSC(=S)Nc2ccc(Cl)c([N+](=O)[O-])c2)cc1 | active
CCC(O)C(O)(c1ccccc1)c1nc2ccccc2s1 (stereo not drawn) | inactive
CC(O[Si](C)(C)C(C)(C)C)C(=O)Sc1ccccn1 (stereo not drawn) | active
O=[N+]([O-])c1c(Cl)cccc1-c1c[nH]cc1Cl | active
NC(=S)NNCCC(=O)Nc1ccccc1C(F)(F)F | inactive
N#Cc1cn(-c2c3ccccc3nc3ccccc23)c(=O)[nH]c1=O | inactive
CCOC(=O)N(c1ccccc1)N(CC)C(=O)/C(C)=N/Nc1ccc([N+](=O)[O-])cc1 | active
CCC[CH2][Sn]([Cl])([CH2]CCC)[S]/C(C#N)=N/N=C/c1ccc(N(C)C)cc1 | active
COc1cccc(NC(=S)NC(Cc2ccccc2)c2ccccc2)c1 (stereo not drawn) | active
